Target: TANK-2 enzyme (Homo sapiens)
Construct: made in house
Sequence (Q9H2K2 1-1166): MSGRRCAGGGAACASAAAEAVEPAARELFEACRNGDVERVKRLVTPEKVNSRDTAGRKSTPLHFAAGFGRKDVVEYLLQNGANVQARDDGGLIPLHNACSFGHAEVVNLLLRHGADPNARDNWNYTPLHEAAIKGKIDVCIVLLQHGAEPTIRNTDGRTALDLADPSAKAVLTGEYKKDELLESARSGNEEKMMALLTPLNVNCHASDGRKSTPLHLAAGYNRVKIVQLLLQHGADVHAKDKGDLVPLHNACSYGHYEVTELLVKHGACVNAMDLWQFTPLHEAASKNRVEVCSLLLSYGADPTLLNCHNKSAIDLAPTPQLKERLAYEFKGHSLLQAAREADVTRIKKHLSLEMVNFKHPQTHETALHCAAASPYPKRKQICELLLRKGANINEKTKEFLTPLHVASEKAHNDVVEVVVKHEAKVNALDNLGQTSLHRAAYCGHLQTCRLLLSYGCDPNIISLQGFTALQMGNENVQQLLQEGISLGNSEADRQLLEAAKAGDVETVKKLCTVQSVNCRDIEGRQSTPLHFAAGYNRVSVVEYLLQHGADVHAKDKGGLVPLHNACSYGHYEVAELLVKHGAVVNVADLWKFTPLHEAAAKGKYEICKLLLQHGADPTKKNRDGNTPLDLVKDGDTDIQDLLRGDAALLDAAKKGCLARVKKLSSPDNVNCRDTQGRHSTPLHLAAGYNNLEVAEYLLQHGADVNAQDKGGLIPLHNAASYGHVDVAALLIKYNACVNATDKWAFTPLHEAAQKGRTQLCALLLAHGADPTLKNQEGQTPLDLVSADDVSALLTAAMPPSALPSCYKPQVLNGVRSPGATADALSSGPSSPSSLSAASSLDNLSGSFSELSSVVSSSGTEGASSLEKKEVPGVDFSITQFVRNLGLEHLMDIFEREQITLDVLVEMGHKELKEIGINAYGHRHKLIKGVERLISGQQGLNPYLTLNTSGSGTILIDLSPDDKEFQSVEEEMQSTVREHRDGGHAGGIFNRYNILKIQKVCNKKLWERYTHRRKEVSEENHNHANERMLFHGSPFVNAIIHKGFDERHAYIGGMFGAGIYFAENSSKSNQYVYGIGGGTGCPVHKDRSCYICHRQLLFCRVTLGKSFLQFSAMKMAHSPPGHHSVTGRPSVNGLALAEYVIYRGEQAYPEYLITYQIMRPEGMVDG
Experiment: In vitro scintillation proximity assay (SPA) for TANK-2 inhibitory activity
Assay type: biochemical
Conditions: auto-poly(ADP-ribosyl)ation, Ni flash plates; 96-well results if available, otherwise 384-well; tested between 10^-5 M and 3x10^-8 M; read-out: in vitro SPA assay TANK-2 pIC50 (converted)
attribute-measured: IC50
Answers without a unit are incomplete; give the number and then its unit.

Reported IC50, compound `CCc1cc2ccc(CNCCN3CCOCC3)cc2[nH]c1=O` : ____ 5870 nM

Further, for `CCc1cc2ccc(CN3CCN(c4ccccc4Cl)CC3)cc2[nH]c1=O` ? 1930 nM

Further, for `CCc1cc2ccc(CN3CCN(c4ccc(C#N)cn4)CC3)cc2[nH]c1=O` ? 76.6 nM
